target: neuraminidase from the H1N9 strain of influenza (Influenza A virus, UniProt P03472); assay: biochemical; conditions: neuraminidase enzyme inhibition data (IC50 values) Flu A
Sequence (P03472 83-470 limits assumed): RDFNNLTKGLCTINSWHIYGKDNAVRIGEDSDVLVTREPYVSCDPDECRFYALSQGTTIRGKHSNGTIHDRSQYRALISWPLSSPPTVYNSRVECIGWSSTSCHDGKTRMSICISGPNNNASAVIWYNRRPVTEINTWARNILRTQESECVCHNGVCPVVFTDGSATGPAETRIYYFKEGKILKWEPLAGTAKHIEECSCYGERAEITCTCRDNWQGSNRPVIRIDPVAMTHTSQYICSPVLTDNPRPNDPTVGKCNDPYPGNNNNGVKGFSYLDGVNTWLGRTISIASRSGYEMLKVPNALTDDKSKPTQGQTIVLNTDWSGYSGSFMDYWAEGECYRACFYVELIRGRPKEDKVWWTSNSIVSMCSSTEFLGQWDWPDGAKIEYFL
Counter-ions that a name gives are not always drawn.
PARAMETER MEASURED: IC50

Need IC50 of CCC(CC)C(NC(C)=O)[C@@H]1C[C@@H](C(=O)O)C[C@H]1N (stereo partly shown) [Compound 199] , thanks.
< 1000 nM

Could you do the same for CCC(CC)C(NC(C)=O)[C@@H]1C=C(C(=O)O)C[C@H]1NC(=N)N (stereo partly shown) [Compound 219, Hydrochloride] , please?
< 1000 nM

What do you get for CCC(CC)C(NC(C)=O)C1CC(C(=O)O)CC1O (single isomer, unassigned) [Compound 65] ?
1000 to 100000 nM

Lookup CCC(CC)C(NC(C)=O)C1CC(C(=O)O)CC1N (single isomer, unassigned) [Compound 200]
< 1000 nM

---

Parameter 'readout' = pIC50; parameter 'system' = Flu B neuraminidase (Influenza B virus).
Sequence (P03474 whole entry): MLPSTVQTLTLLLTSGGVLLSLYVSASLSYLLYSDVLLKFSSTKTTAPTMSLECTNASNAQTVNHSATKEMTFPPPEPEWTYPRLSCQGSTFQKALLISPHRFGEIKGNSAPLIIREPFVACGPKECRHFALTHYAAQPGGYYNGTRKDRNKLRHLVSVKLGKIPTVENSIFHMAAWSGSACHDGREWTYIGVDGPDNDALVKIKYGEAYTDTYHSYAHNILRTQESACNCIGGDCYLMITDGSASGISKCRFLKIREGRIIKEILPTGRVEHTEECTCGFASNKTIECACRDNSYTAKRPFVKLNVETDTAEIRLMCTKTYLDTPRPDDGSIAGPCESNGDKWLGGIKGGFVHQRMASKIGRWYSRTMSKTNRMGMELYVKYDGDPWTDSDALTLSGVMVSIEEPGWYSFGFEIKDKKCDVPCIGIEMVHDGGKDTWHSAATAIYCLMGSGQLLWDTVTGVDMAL
pIC50: −log10 of the molar value. Structures can show the parent of a compound that is named as a salt.

If you can, please state the reported pIC50 value of CCCCC(NC(C)=O)C1C(NC(=N)N)CC(C(=O)O)C1O (single isomer, unassigned) .
> 6.00

Also need CCC(CC)C(NC(C)=O)C1CC(C(=O)O)CC1O (single isomer, unassigned) , thanks.
4.00 to 6.00

Entry to check: CCC(CC)C(NC(C)=O)[C@@H]1[C@H](O)[C@@H](C(=O)O)C[C@H]1NC(=N)NC (stereo partly shown)
> 6.00

Next compound: CCCC(CCC)C(NC(C)=O)[C@@H]1C[C@@H](C(=O)O)C[C@H]1NC(=N)N (stereo partly shown)
> 6.00

Now the compound CCC(CC)C(NC(C)=O)C1CC(C(=O)O)CC1N (single isomer, unassigned) [Compound 200]
> 6.00

Also CCC(CC)C(NC(C)=O)C1CC(C(=O)O)CC1N (single isomer, unassigned) [Compound 86] ?
4.00 to 6.00

One more compound: CCC(CC)C(NC(C)=O)[C@@H]1[C@H](O)[C@@H](C(=O)O)C[C@H]1N (stereo partly shown)
> 6.00

What about CCC(CC)C(NC(C)=O)[C@@H]1C[C@@H](C(=O)O)C[C@H]1N (stereo partly shown) ?
> 6.00

Request: CCC(CC)CC(NC(C)=O)C1C(NC(=N)N)CC(C(=O)O)C1O (single isomer, unassigned)
> 6.00

Try the compound CCCCC(NC(C)=O)C1C(N)CC(C(=O)O)C1O (single isomer, unassigned)
4.00 to 6.00

And CCCC(CCC)C(NC(C)=O)[C@@H]1[C@H](O)[C@@H](C(=O)O)C[C@H]1NC(=N)N (stereo partly shown) ?
> 6.00

Item: CCC(C)C(NC(C)=O)C1C(N)CC(C(=O)O)C1O (single isomer, unassigned)
4.00 to 6.00

What about this compound? CCCC(CCC)C(NC(C)=O)C1C(N)CC(C(=O)O)C1O (single isomer, unassigned)
> 6.00

Also, CCC(CC)C(NC(C)=O)[C@@H]1C=C(C(=O)O)C[C@H]1NC(=N)N (stereo partly shown) [Compound 219, Hydrochloride] please.
> 6.00

Follow-up item: CCC(CC)C(NC(C)=O)C1C(N)CC(C(=O)O)C1O (single isomer, unassigned)
> 6.00

Here is the next compound: CCC(CC)C(NC(C)=O)[C@@H]1C[C@@H](C(=O)O)C[C@H]1NC(=N)NC (stereo partly shown)
> 6.00

Value source: patent US6562861B1
